# System: MS2 coat protein
# assay-text: apparent KD of MS2 coat protein; designed switch direction (-1 OFF switch, 1 ON switch): 1; higher = weaker reporter binding
# assay-conditions: input ligand: FMN 200 uM
readout-kind: apparent KD of MS2 coat protein (nM)

UGAAUGAUGAUAGGAUAUACAUGAGGAAUCCUCGUAGAAGGAUCAUGACAUGAGGAUCACCCAUGUAGCGCUCCGUAGAGCGCA [JL SSNG1 1.20] (Eterna round: R96, puzzle: Same State NG 1)	561
GUAGCAUACCGAGGAUAUUCAUACAUGAGGAUCACCCAUGUUAUUAUAGGACGAUUACGUCCUUGGGAGAAGGCGGAAUGCUAC [Xeonanis - 20 Mod29] (Eterna round: R96, puzzle: Same State NG 2)	10.2
GGAGCCAAGGCAGGAUAUUCAUAUUAAUAACACAUGAGGAUCACCCAUGUGGCCAGAAGGCCAAGGGAGAAGGGCCAUGGCUCG [Xeonanis - 13 mod11] (Eterna round: R96, puzzle: Same State NG 2)	22.1
GGUGCCAAAUAAGCCUACAUGAGGAUCACCCAUGUAUGUAGGUAGGAUAUCGUAUGCAAAGCAUACGAGAAGGGCCUAGGCACC [Mat - Same State NG 3 - JL Mod - D60] (Eterna round: R96, puzzle: Same State NG 3)	18.1
